test system: pMucinred (reduced and alkylated pMucin); assay: TFF-mucin ELISA on pMucinred; type: binding, porcine; conditions: immobilised pMucinred, Strep-HRP detection
Where no end group is shown, it is not given here.
OBSERVED PROPERTY: binding / affinity to pMucinred by ELISA

1) mTFF1bio: site-selectively biotinylated monomeric TFF1 ({Avi‑tag(biotin)}-EAQTETCTVAPRERQNCGFPGVTPSQCANKGCCFDDTVRGVPWCFYPNTIDVPPEEECEF; also: one free cysteine, interchain disulfide not formed) = robust binding
2) mTFF3bio: site-selectively biotinylated monomeric TFF3 ({Avi‑tag(biotin)}-EEYVGLSANQCAVPAKDRVDCGYPHVTPKECNNRGCCFDSRIPGVPWCFKPLQEAECTF; also: one free cysteine, interchain disulfide not formed) = robust binding

---

biological target: mTFF1 (human TFF1, monomeric) (Homo sapiens); construct: PelB signal peptide (N, cleaved yes); His6 (C, cleaved yes); made in house; host or cells: E. coli T7 Express, periplasmic extraction; experiment: Isothermal titration calorimetry of glycans against mTFF1; type: binding; conditions: ITC, 25 °C, 50 mM HEPES, 50 mM NaCl, pH 7.4; protein 30 µM
OBSERVED PROPERTY: Kd
Remember to follow the number with its unit.

Enquiry: Kd lookup needed for CC(=O)N[C@H]1[C@@H](O[C@@H]2[C@H](O)[C@@H](O)C(O)O[C@@H]2CO)O[C@H](CO)[C@@H](O)[C@@H]1O (stereo partly shown) , thanks.
Return: 49 µM

---

biological target: TFF2 (human TFF2) (Homo sapiens, UniProt Q03403, N38Q); construct: with an N-terminal gp67 signal peptide and a C-terminal His10-tag; gp67 signal peptide (N, cleaved yes); made in house; host or cells: Sf21 insect cells (baculovirus), secreted; assay: Isothermal titration calorimetry of glycans against TFF2; assay type: binding
Sequence (Q03403 24-129 N38Q): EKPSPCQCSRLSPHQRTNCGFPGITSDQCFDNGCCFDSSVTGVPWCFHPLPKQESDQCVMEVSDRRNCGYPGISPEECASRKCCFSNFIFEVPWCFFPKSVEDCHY
OBSERVED PROPERTY: Kd (µM)
Answers are plain numbers, in µM.

Enquiry: For TFF2 (human TFF2) (Homo sapiens, UniProt Q03403, N38Q), provide Kd of CC(=O)N[C@H]1[C@@H](O[C@@H]2[C@H](O)[C@@H](O)C(O)O[C@@H]2CO)O[C@H](CO)[C@@H](O)[C@@H]1O (stereo partly shown) please.
Return: 44

---

Biological target: mTFF1 (Homo sapiens)
Construct: PelB signal peptide (N, cleaved yes); His6 (C, cleaved yes); made in house; host or cells: E. coli T7 Express, periplasmic extraction
Sequence (P04155 29-72 limits assumed): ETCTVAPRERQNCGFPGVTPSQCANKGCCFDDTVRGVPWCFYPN
Assay: Tryptophan fluorescence quenching assay, mTFF1
Format: binding
Conditions: pH 7.4, 25 °C
OBSERVED PROPERTY: pKd
Give bare numbers, as −log10 of the molar value.

Enquiry: For mTFF1 (Homo sapiens), provide pKd of CC(=O)N[C@H]1[C@@H](O[C@@H]2[C@H](O)[C@@H](O)C(O)O[C@@H]2CO)O[C@H](CO)[C@@H](O)[C@@H]1O (stereo partly shown) please.
Return: 4.43

---

target: mTFF3 (human TFF3, monomeric) (Homo sapiens, UniProt Q07654, C78S); construct: with an N-terminal PelB signal peptide, no interchain Cys, and a C-terminal His6-tag; PelB signal peptide (N, cleaved yes); His6 (C, cleaved yes); made in house; host or cells: E. coli T7 Express, periplasmic extraction; experiment: Isothermal titration calorimetry of glycans against mTFF3; assay type: binding; conditions: ITC, pH 7.4, 25 °C; TFF3
Sequence (Q07654 22-80 C78S): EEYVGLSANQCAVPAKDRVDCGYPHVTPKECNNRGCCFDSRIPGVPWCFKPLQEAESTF
OBSERVED PROPERTY: affinity by ITC

1) CC(=O)N[C@H]1[C@@H](Oc2ccc([N+](=O)[O-])cc2)O[C@H](CO)[C@@H](O)[C@@H]1O = no detectable affinity
2) CC(=O)N[C@H]1C(O)O[C@H](CO)[C@@H](O)[C@@H]1O (some centres unmarked) = no detectable affinity
3) CC(=O)N[C@H]1[C@@H](OCc2ccccc2)O[C@H](CO)[C@@H](O)[C@@H]1O = no detectable affinity

---

Target: all TFFs
Experiment: Dissociation constant of TFF-disaccharide complexes, summary of orthogonal techniques
Details: physiological pH, approximate
Description: All TFF and ligand stock solutions were prepared in the same buffer (50 mM HEPES, 50 mM NaCl, pH 7.4) and filtered (0.22 µm) just prior to titration. All control and non-binding ligand experiments were performed as 12 × 3.18 µl injections. […] Tryptophan fluorescence quenching assays were performed at 25 °C on an EnVision 2105 Multimode Plate Reader (PerkinElmer) with excitation at 280 nm and emission measured at 340 nm. […]
pKd: −log10 of the molar value.
OBSERVED PROPERTY: pKd

Enquiry: For all TFFs, provide pKd of CC(=O)N[C@H]1[C@@H](O[C@@H]2[C@H](O)[C@@H](O)C(O)O[C@@H]2CO)O[C@H](CO)[C@@H](O)[C@@H]1O (stereo partly shown) please.
Return: ~4.30

---

target: TFF2 (human TFF2) (Homo sapiens, UniProt Q03403, N38Q); construct: with an N-terminal gp67 signal peptide and a C-terminal His10-tag; gp67 signal peptide (N, cleaved yes); made in house; host or cells: Sf21 insect cells (baculovirus), secreted; assay: Isothermal titration calorimetry of glycans against TFF2; type: binding; settings: ITC, pH 7.4, 25 °C; TFF2
OBSERVED PROPERTY: affinity by ITC

1) CC(=O)N[C@H]1[C@@H](OCc2ccccc2)O[C@H](CO)[C@@H](O)[C@@H]1O = no detectable affinity
2) CC(=O)N[C@H]1C(O)O[C@H](CO)[C@@H](O)[C@@H]1O (some centres unmarked) = no detectable affinity
3) CC(=O)N[C@H]1[C@@H](Oc2ccc([N+](=O)[O-])cc2)O[C@H](CO)[C@@H](O)[C@@H]1O = no detectable affinity

---

Molecular target: mTFF1 (Homo sapiens)
Construct: PelB signal peptide (N, cleaved yes); His6 (C, cleaved yes); made in house; host or cells: E. coli T7 Express, periplasmic extraction
Sequence (P04155 29-72 limits assumed): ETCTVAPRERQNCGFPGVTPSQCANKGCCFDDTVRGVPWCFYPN
Assay: Tryptophan fluorescence quenching assay, mTFF1
Assay type: binding
Conditions: pH 2.6, 25 °C
OBSERVED PROPERTY: Kd (µM)
One number for each entry, in µM.

Enquiry: Kd lookup needed for CC(=O)N[C@H]1[C@@H](O[C@@H]2[C@H](O)[C@@H](O)C(O)O[C@@H]2CO)O[C@H](CO)[C@@H](O)[C@@H]1O (stereo partly drawn) [GlcNAc-α-1,4-Gal] , thanks.
Return: 67

---

target: mTFF1 (human TFF1, monomeric) (Homo sapiens); construct: PelB signal peptide (N, cleaved yes); His6 (C, cleaved yes); made in house; host or cells: E. coli T7 Express, periplasmic extraction; experiment: Isothermal titration calorimetry of glycans against mTFF1; format: binding; conditions: ITC, pH 7.4, 25 °C; TFF1
OBSERVED PROPERTY: affinity by ITC

1) CC(=O)N[C@H]1[C@@H](Oc2ccc([N+](=O)[O-])cc2)O[C@H](CO)[C@@H](O)[C@@H]1O [4-nitrophenyl α-D-GlcNAc] = no detectable affinity
2) CC(=O)N[C@H]1[C@@H](OCc2ccccc2)O[C@H](CO)[C@@H](O)[C@@H]1O [benzyl α-D-GlcNAc] = no detectable affinity
3) CC(=O)N[C@H]1C(O)O[C@H](CO)[C@@H](O)[C@@H]1O (stereo partly drawn) [D-GlcNAc] = no detectable affinity
